B1: Chromodomain-helicase-DNA-binding protein 5, residues 411 to 463; numbered along this chain, Q8TDI0 (parent)
chain: EEDDHMEFCRVCKDGGELLCCDACPSSYHLHCLNPPLPEIPNGEWLCPRCTCP

- Variants of: B1
- Assay summary: abundance fitness (aPCA) (normalised: wild type 0, dead -1); higher = more abundant; growth selection in yeast, the domain comes from the species named
- Measurement setup: Homo sapiens
Assay readout: abundance fitness

var=L33F assay_readout="abundance fitness" test_value=-0.209
var=E39Q assay_readout="abundance fitness" test_value=0.008
var=L18S assay_readout="abundance fitness" test_value=-0.754
var=C24Q assay_readout="abundance fitness" test_value=-1.11
var=L33G assay_readout="abundance fitness" test_value=-0.554
var=C20T assay_readout="abundance fitness" test_value=0.123
var=N34L assay_readout="abundance fitness" test_value=-0.015
var=E17V assay_readout="abundance fitness" test_value=-0.228
var=Y28P assay_readout="abundance fitness" test_value=-0.565
var=C20P assay_readout="abundance fitness" test_value=0.146
var=P48D assay_readout="abundance fitness" test_value=0.212
var=R49C assay_readout="abundance fitness" test_value=0.021
